Hi there, I'd appreciate the recorded total impurity for every entry that follows.
# ASSAY PROTOCOL: Evaluation of solid stability (storage 2 weeks; total impurity by HPLC, water content, powder X-ray diffraction)
# Assay type: physicochemical
# CONDITION DESCRIPTION: b-2: 25° C., light irradiation 1000 lx, shading with aluminum foil, well closed, 2 weeks
Provide the reading as a plain figure in %.

Query: Give the measured total impurity for COc1cc2nccc(Oc3ccc(NC(=O)NC4CC4)c(Cl)c3)c2cc1C(N)=O.CS(=O)(=O)O [mesylate (Form C)]
Reply: 2.09

Query: Give the measured total impurity for CCS(=O)(=O)O.COc1cc2nccc(Oc3ccc(NC(=O)NC4CC4)c(Cl)c3)c2cc1C(N)=O [esylate (Form β)]
Reply: 0.46

Query: Give the measured total impurity for COc1cc2nccc(Oc3ccc(NC(=O)NC4CC4)c(Cl)c3)c2cc1C(N)=O.CS(=O)(=O)O [mesylate (Form A)]
Reply: 3.95

Query: Give the measured total impurity for CC(=O)O.COc1cc2nccc(Oc3ccc(NC(=O)NC4CC4)c(Cl)c3)c2cc1C(N)=O.CS(=O)(=O)O
Reply: 0.66
